test system: Oryza sativa; experiment: Crop compatibility post-emergence, greenhouse pot test; assay type: in vivo; conditions: application rate 5 g/ha
Readout: Oryza sativa (Efficacy in %)
Could you give me the number in %? Just the number is fine.

1) CC(Sc1cc(-n2c(=O)cc(C(F)(F)F)n(C)c2=O)c(F)cc1Cl)C(=O)OCC(=O)N(C)C (stereo not shown) ... 10
2) CCCOC(=O)CCOC(=O)C(C)Sc1cc(-n2c(=O)cc(C(F)(F)F)n(C)c2=O)c(F)cc1Cl (stereo not shown) ... 20
3) COC(=O)CC(C)OC(=O)C(C)Sc1cc(-n2c(=O)cc(C(F)(F)F)n(C)c2=O)c(F)cc1Cl (stereo not shown) ... 0

Continue with the next molecule.
Data request: State Oryza sativa (Efficacy in %) on Oryza sativa. Entry: CNC(=O)CCOC(=O)C(C)Sc1cc(-n2c(=O)cc(C(F)(F)F)n(C)c2=O)c(F)cc1Cl (stereo not shown)
Data returned: 10
